# target-of-assay: human RXFP1 (Homo sapiens)
# Sequence (Q9HBX9 1-757): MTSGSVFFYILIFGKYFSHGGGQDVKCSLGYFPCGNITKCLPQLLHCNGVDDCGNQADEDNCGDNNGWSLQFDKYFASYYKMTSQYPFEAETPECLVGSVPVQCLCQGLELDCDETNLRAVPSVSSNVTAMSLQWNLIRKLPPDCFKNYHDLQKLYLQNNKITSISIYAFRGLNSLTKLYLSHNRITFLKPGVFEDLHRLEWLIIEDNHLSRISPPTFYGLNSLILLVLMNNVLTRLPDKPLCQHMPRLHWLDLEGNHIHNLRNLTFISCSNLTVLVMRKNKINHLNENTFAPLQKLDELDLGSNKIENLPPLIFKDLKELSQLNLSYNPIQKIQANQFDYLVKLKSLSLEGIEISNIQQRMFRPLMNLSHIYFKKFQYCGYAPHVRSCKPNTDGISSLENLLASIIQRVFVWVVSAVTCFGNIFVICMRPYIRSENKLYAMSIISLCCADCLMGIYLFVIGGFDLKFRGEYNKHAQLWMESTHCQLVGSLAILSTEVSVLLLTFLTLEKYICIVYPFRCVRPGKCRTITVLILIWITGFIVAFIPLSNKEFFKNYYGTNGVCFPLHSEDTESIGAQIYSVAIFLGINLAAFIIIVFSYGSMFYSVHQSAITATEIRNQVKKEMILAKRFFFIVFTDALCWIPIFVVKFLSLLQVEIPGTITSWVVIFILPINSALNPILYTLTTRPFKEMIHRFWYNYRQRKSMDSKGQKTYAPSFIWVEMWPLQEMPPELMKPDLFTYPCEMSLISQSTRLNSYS
# test-details: human RXFP1 (hRXFP1) HEK293 cAMP assay (HTRF)
# condition-summary: HEK293 cells stably expressing human RXFP1, 30 min at room temperature
parameter: pEC50
Entry type: numeric. Quantity: pEC50, the -log10 of concentration in molar units.

COc1ncc(C2=NOC3CC(CO)CC23)cc1C(=O)N[C@H]1[C@@H](C(=O)N[C@H](C)C2(C)CC(F)(F)C2)[C@H]2CC[C@@H]1/C2=C\C1CC1 (some centres unmarked) [Example 140]
8.49
COc1ncc(C2=NOC3CC(CO)CC23)cc1C(=O)N[C@@H]1C2CCC(/C2=C/C2CC2)[C@@H]1C(=O)Nc1ccc(F)c(C(F)(F)F)c1 (single isomer, unassigned) [Example 69]
8.82
COc1cnc(-c2cc(C(=O)O)ccc2F)nc1C(=O)N[C@@H]1C2CCC(/C2=C/C(F)(F)F)[C@@H]1C(=O)Nc1ccc(F)c(C(F)(F)F)c1 (some centres unmarked) [Example 32]
6.78
COc1ncc(C2=NOC3CC(C(C)(C)O)CC23)cc1C(=O)N[C@H]1[C@@H](C(=O)Nc2ccc(F)c(C(F)(F)F)c2)[C@H]2CC[C@@H]1/C2=C\C1CC1 (some centres unmarked) [Example 109]
8.57
COc1ncc(C2=NO[C@H]3C[C@H](CO)CN23)cc1C(=O)N[C@@H]1C2CCC(/C2=C/C2CC2)[C@@H]1C(=O)N[C@H](C)C1(C)CC1 (some centres unmarked) [Example 107]
8.59
COc1cc(C2=NOC3CC(COC(=O)Nc4ccccc4)CC23)cc(C(=O)N[C@@H]2C3CCC(/C3=C/C3CC3)[C@@H]2C(=O)Nc2ccc(F)c(C(F)(F)F)c2)n1 (some centres unmarked) [Example 158]
8.11

API: the following record is the query input.
INPUT: Observed pEC50 on human RXFP1 (Homo sapiens) for COc1ncc(C2=NOC3COCC23)cc1C(=O)N[C@H]1[C@@H](C(=O)Nc2ccc(F)c(C(F)(F)F)c2)[C@H]2CC[C@@H]1/C2=C\C1CC1 (single isomer, unassigned) [Example 61] , please.
OUTPUT: 8.43
